target: MLE dsRBD1+2 E172A (Drosophila, UniProt P24785 1-264, E172A); experiment: fluorescence polarization; FP: 80 nM 3'-FAM RNA stock mixed 1:1 with protein, buffer D (composition not in material), 15 min, 20 C; EMSA: 1200 nM RNA stock mixed 1:1 with protein, buffer; settings: protein: recombinant; tags: SUMO tag removed by ULP1; label: 3'-FAM; hairpin, 13 nt loop (C135-C147)
Sequence (P24785 1-264 E172A): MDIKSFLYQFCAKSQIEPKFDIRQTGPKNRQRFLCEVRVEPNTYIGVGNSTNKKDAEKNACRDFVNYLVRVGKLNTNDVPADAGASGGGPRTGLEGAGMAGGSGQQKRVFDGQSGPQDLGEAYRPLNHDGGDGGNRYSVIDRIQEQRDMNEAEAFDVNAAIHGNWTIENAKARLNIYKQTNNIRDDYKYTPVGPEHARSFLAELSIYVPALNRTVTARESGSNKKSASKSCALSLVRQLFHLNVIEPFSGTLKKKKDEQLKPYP
measure: pKd
Expect pKd as a plain number equal to -log10 of the molar concentration.

Form field: reported pKd of R2H1 55mer (FAM) (structured_RNA) RNA: GCUUUAGAGAUCGUUUCGAAUCACAUUGAUAAUCGUUCGAAACGUUCUCCGAAGC
6.74
